Reported Side: Width1/2 by item:
test: Solution dipping, flat-iron thermal straightening, imaging analysis of tress length and width; set-up: species or system human; settings: average over 1-24 shampoos after thermal treatment
MEASURED_ENDPOINT: Side: Width1/2 (cm)

O=C1OCCO1 [EC, ethylene carbonate]: 1.5
O=C1NCCN1 [EU, Ethylene Urea]: 2.6
O=CC(=O)O [GA, Glyoxylic Acid]: 1.4
O=C1NCCO1 [O, 2-oxazolidinone]: 2.7
NC(N)=O [U, Urea]: 4.0

Measured values drawn from patent US9872824B2 for this set.
